// data source = patent US7507739B2

System: S1-M1 cells
assayProtocol: MTS cytotoxicity test with S1-M1 cells (MXR)
Assay type: cell-based, human
testConditions: Homo sapiens; S1-M1 cells, MTS; read-out: IC50 S1-M1
pIC50: −log10 of the molar value.
Quick rule for you: pIC50 at 8 or higher means Criterion met, lower means Criterion not met.

- O=C1c2c(O)ccc(O)c2C(=O)c2c(NCCNCCO)ccc(NCCNCCO)c21 [Mitoxantrone, reference compound]: Criterion not met
- CNCCCOc1cc(F)c(-c2c(Cl)nc3ncnn3c2NCC(F)(F)F)c(F)c1.Cl: Criterion not met
- CN(C)CCCOc1cc(F)c(-c2c(Cl)nc3ncnn3c2NCC(F)(F)F)c(F)c1.Cl: Criterion not met
- CC[C@]1(O)C[C@H]2CN(CCc3c([nH]c4ccccc34)[C@@](C(=O)OC)(c3cc4c(cc3OC)N(C=O)[C@H]3[C@@](O)(C(=O)OC)[C@H](OC(C)=O)[C@]5(CC)C=CCN6CC[C@]43[C@@H]65)C2)C1 [Vincristine, reference compound]: Criterion met
